Cited source: patent US6165998A

target_desc: C. albicans RNA polymerase II (Candida albicans, UniProt A0A1D8PUA6+Q5A8Y5)
Construct: RNA elongation assay on calf thymus DNA
Sequence (A0A1D8PUA6 1-1728): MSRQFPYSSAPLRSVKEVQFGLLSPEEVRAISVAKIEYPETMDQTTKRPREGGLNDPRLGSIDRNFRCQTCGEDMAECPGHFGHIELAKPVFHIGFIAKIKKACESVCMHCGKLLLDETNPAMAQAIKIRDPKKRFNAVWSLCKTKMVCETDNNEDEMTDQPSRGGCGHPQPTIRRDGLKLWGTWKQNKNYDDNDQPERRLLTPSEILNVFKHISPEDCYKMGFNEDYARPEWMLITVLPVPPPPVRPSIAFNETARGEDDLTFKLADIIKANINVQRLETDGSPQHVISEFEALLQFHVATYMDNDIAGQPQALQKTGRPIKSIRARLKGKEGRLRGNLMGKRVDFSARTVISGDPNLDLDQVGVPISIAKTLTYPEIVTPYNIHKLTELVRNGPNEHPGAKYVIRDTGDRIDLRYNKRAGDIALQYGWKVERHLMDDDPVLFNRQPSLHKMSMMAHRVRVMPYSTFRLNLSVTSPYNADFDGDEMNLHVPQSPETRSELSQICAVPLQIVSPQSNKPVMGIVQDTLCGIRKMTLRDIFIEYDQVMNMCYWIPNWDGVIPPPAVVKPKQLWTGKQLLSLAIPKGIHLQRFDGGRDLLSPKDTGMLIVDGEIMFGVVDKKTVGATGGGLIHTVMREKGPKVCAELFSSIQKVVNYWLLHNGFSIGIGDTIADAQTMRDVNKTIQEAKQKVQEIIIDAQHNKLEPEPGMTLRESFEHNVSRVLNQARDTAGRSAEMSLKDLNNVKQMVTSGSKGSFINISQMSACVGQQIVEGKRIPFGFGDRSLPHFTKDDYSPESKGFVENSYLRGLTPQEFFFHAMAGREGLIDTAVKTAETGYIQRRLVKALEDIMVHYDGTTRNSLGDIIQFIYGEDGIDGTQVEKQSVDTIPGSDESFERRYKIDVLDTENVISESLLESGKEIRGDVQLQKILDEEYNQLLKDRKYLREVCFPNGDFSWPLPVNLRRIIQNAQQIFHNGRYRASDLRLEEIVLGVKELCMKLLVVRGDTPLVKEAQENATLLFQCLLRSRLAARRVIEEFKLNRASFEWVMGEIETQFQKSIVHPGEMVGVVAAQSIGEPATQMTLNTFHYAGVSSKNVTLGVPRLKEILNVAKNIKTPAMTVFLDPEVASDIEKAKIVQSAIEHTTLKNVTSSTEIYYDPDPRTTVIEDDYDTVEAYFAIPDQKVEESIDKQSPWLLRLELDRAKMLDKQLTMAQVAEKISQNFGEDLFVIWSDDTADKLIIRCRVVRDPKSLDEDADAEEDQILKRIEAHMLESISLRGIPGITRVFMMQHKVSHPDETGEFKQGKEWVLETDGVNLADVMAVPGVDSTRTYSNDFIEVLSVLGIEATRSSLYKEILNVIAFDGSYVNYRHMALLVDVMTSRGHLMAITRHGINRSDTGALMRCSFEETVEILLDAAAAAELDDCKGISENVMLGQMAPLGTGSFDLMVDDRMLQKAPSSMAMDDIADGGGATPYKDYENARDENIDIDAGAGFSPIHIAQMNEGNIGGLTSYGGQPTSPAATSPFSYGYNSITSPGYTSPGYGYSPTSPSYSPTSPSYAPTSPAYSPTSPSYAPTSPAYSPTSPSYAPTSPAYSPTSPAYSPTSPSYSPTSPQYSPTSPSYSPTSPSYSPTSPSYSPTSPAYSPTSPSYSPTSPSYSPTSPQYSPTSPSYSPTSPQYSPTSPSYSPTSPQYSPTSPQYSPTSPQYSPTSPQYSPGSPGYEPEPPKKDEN
Sequence (Q5A8Y5 1-1234): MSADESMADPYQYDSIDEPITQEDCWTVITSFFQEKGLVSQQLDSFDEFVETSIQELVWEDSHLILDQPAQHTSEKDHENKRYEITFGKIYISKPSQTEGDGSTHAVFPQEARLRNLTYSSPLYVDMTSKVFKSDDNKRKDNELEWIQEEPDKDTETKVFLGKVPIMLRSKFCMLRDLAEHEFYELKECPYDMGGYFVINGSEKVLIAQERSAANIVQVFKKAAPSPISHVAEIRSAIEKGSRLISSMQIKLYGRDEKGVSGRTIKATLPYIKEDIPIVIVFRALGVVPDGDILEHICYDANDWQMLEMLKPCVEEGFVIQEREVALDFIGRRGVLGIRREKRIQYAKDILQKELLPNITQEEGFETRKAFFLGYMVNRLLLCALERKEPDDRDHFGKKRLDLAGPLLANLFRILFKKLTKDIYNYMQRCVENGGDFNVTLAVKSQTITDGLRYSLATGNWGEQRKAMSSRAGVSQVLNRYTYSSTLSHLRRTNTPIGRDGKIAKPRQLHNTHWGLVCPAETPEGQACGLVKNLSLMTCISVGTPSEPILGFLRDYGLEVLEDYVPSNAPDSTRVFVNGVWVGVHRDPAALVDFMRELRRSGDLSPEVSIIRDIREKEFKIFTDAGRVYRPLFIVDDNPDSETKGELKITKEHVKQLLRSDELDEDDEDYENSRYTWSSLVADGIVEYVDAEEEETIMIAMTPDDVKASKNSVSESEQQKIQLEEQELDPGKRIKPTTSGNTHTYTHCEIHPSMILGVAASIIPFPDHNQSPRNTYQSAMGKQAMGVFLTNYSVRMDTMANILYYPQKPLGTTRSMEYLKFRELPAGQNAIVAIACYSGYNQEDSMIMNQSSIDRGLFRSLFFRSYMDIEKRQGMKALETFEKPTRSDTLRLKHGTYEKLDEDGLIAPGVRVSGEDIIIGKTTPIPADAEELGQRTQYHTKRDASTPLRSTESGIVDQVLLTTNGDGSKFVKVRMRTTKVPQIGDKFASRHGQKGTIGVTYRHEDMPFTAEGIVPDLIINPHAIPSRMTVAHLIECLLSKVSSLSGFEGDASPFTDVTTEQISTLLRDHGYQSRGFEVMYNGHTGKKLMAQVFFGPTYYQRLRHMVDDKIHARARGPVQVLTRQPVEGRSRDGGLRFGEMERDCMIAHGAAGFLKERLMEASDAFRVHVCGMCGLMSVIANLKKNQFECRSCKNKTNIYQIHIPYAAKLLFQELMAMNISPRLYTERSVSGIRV
measurement_notes: biochemical
run_conditions: at 20 μM, screening of azo library
readout: inhibition at 20 µM (%)

>>> df
                                   compound                               target_desc  measured_number
0       N#Cc1cc(N=Nc2cccc(C(F)(F)F)c2)ccc1O  C. albicans RNA polymerase II (Candida albicans, UniProt A0A1D8PUA6+Q5A8Y5)               37
1         Cc1cc(O)ccc1N=Nc1cccc(C(F)(F)F)c1  C. albicans RNA polymerase II (Candida albicans, UniProt A0A1D8PUA6+Q5A8Y5)               42
2         Oc1ccc(N=Nc2cccc(C(F)(F)F)c2F)cc1  C. albicans RNA polymerase II (Candida albicans, UniProt A0A1D8PUA6+Q5A8Y5)               38
3       N#Cc1cc(O)ccc1N=Nc1cccc(C(F)(F)F)c1  C. albicans RNA polymerase II (Candida albicans, UniProt A0A1D8PUA6+Q5A8Y5)               28
4  O=[N+]([O-])c1cccc(N=Nc2ccc(O)cc2)c1 [Compound 12, 4-[-2-[3-(nitro)phenyl]diazenyl]phenol]  C. albicans RNA polymerase II (Candida albicans, UniProt A0A1D8PUA6+Q5A8Y5)               45
